Answer each item with its documented GI50.
- System: TK-10 renal
- assayNotes: NCI tumour cell line growth inhibition, 48 h

Example cases with answers are listed next.
O=C(Nc1ccc(Cl)cc1)c1cc(-c2ccc(F)cc2)c2sc(=O)[nH]c2n1: 1880 nM
O=C(N/N=C/c1cccc(O)c1O)c1ccccc1: 2570 nM
COc1cc(OC)c(/C=C/C(=O)c2c(OC)cccc2OC)c(OC)c1: 5030 nM
COc1ccc(C(=O)c2cc(C)c(OC)c(C)c2)c(OC)c1N(C(=O)C(Cl)Cl)C(=O)C(Cl)Cl: > 79800 nM

Asked: Request: GI50, test system TK-10 renal, entry CCN(CC)CCN1CC(O)=C(c2nc(-c3ccc(Cl)cc3)cs2)C1=N
Given back: 2860 nM
